Biological target: GST-Nv-NF-kB (Ser allele) (Nematostella vectensis, UniProt A7UNT2 2-411)
Sequence: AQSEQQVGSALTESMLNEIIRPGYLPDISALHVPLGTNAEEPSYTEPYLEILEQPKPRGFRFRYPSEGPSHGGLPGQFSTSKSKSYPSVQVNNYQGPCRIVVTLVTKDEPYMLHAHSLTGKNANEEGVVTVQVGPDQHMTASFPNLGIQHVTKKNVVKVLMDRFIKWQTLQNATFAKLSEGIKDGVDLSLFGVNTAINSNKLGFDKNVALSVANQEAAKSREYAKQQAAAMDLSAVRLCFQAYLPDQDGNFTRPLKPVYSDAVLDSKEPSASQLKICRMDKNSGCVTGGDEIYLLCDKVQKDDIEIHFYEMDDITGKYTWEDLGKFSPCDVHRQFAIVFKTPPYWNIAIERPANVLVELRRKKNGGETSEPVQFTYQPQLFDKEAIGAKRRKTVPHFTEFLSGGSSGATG
Assay: protein-binding microarray (PBM); PBM: ~300 nM protein, 6 mM HEPES pH 7.8, 80 mM KCl, 0.5 mM EDTA, 0.5 mM EGTA, 6% glycerol, 35 ng/ul poly-dIdC, 1% milk, 1 h, room temperature; Ap Aiptasia and Nv Nematostella (sea anemones) / Co Capsaspora / Aq Amphimedon (sponge) / Dm Drosophila / Hu human; RHD is the Rel homology domain; high values mean tight binding
Details: dsDNA, one strand shown
Hi, to clarify the labels: true (1) covers binding signal from 5 z-score upward, false (0) covers anything below 5 z-score.

[
  {
    "residues": "CCGATTAACATCACTACTTTCCCTGATGTTAATCGGGTCTTGATTCGCTTGACGCTGCTG",
    "group_label": "true (1)"
  },
  {
    "residues": "CCGATTAACATCAGGGGTTTAACTGATGTTAATCGGGTCTTGATTCGCTTGACGCTGCTG",
    "group_label": "false (0)"
  },
  {
    "residues": "CCGATTAACATCAAAACTTCCCATGATGTTAATCGGGTCTTGATTCGCTTGACGCTGCTG",
    "group_label": "false (0)"
  },
  {
    "residues": "CCGATTAACATCAGGAAGTCCCATGATGTTAATCGGGTCTTGATTCGCTTGACGCTGCTG",
    "group_label": "false (0)"
  },
  {
    "residues": "CCGATTAACATCAGGGGCACCCCTGATGTTAATCGGGTCTTGATTCGCTTGACGCTGCTG",
    "group_label": "false (0)"
  },
  {
    "residues": "CCGATTAACATCAGGGGAGTTAATGATGTTAATCGGGTCTTGATTCGCTTGACGCTGCTG",
    "group_label": "false (0)"
  },
  {
    "residues": "CCGATTAACATCAGGTACTTCCATGATGTTAATCGGGTCTTGATTCGCTTGACGCTGCTG",
    "group_label": "true (1)"
  },
  {
    "residues": "CCGATTAACATCAGGGACTCCCATGATGTTAATCGGGTCTTGATTCGCTTGACGCTGCTG",
    "group_label": "false (0)"
  },
  {
    "residues": "CCGATTAACATCAGGGGACGCACTGATGTTAATCGGGTCTTGATTCGCTTGACGCTGCTG",
    "group_label": "false (0)"
  },
  {
    "residues": "CCGATTAACATCAAAGAGTCCCCTGATGTTAATCGGGTCTTGATTCGCTTGACGCTGCTG",
    "group_label": "true (1)"
  },
  {
    "residues": "CCGATTAACATCACAAACTTCCCTGATGTTAATCGGGTCTTGATTCGCTTGACGCTGCTG",
    "group_label": "false (0)"
  },
  {
    "residues": "CCGATTAACATCAGTGTCCCGTTTGATGTTAATCGGGTCTTGATTCGCTTGACGCTGCTG",
    "group_label": "false (0)"
  },
  {
    "residues": "CCGATTAACATCAATACCCCCCCTGATGTTAATCGGGTCTTGATTCGCTTGACGCTGCTG",
    "group_label": "false (0)"
  },
  {
    "residues": "CCGATTAACATCAGGGGGCATTATGATGTTAATCGGGTCTTGATTCGCTTGACGCTGCTG",
    "group_label": "false (0)"
  },
  {
    "residues": "CCGATTAACATCAAGCACCCCCTTGATGTTAATCGGGTCTTGATTCGCTTGACGCTGCTG",
    "group_label": "false (0)"
  },
  {
    "residues": "CCGATTAACATCAAATTTACCCCTGATGTTAATCGGGTCTTGATTCGCTTGACGCTGCTG",
    "group_label": "true (1)"
  },
  {
    "residues": "CCGATTAACATCAGGGATTTCCATGATGTTAATCGGGTCTTGATTCGCTTGACGCTGCTG",
    "group_label": "false (0)"
  }
]
